experiment: GFP drop in mixed WT/humanized-ribosome E. coli culture – GFP/RFP fluorescence, OD600, single point, bacterial rRNA inhibitor project, primary screen (AID 720706); details: E. coli WT GFP vs humanized-ribosome RFP mutants, 24 h; active compounds read low, DMSO median 0, no signal -100
Hit rate of the full screen: of about 350,000 compounds, about 5,500 (1.6%) were called active. This excerpt belongs to a sample that is enriched for actives.
Could you please report measured GFP signal change (wild-type ribosome) for the items listed next?
Write it as a number; the unit % goes unstated.

Request: What measured GFP signal change (wild-type ribosome) goes with `C[C@@H]1CN([C@H](C)CO)C(=O)c2cccc(NC(=O)C3CC3)c2O[C@@H]1CN(C)C(=O)Nc1ccccc1` ?
Result: 4.57

Request: Given the compound `O=C(NCC[C@H]1CC[C@@H](NC(=O)c2cnccn2)[C@H](CO)O1)Nc1ccc(Cl)cc1` , what is its reported GFP signal change (wild-type ribosome)?
Result: -40.4

Request: Using the record for `CN(C)CCCNC(=O)C[C@H]1CC[C@H]2[C@@H](COC[C@H](O)CN2C(=O)c2ccncc2)O1` , report its GFP signal change (wild-type ribosome).
Result: 1.62

Request: # query: GFP signal change (wild-type ribosome) of entry CC(NC(=O)Nc1cccc([N+](=O)[O-])c1)c1ccc2c(c1)OCO2 (stereo not given)
Result: -34.5

Request: Value lookup for GFP signal change (wild-type ribosome); key = O=C(NC(=S)NC1CCS(=O)(=O)C1)c1cccc([N+](=O)[O-])c1 (stereo not given)
Result: 3.91

Request: Fill in the blank: the reported GFP signal change (wild-type ribosome) of O=C(Nc1ccc(C2CC2(Cl)Cl)cc1)c1cccc([N+](=O)[O-])c1 (stereo not given) is ____.
Result: -27.9

Request: Fill in the blank: the reported GFP signal change (wild-type ribosome) of `COc1ccc(Cn2c(=O)oc3ccccc32)cc1` is ____.
Result: -5.68

Request: Param item = `COc1ccc2c(c1)c1ncn(Cc3ccccn3)c(=O)c1n2C` ; retrieve measured GFP signal change (wild-type ribosome).
Result: -22.5

Request: Requested read-out: GFP signal change (wild-type ribosome). Entry: `CCCN(C)C[C@H]1OCCCC[C@H](C)Oc2ccc(NS(=O)(=O)c3ccc(C)cc3)cc2C(=O)N([C@@H](C)CO)C[C@H]1C`
Result: -0.746

Request: # input compound: `COc1cccc(CN2CC3(CN(Cc4ccccn4)C3)c3c([nH]c4cc(OC)ccc34)[C@@H]2CO)c1` ; wanted: its GFP signal change (wild-type ribosome)
Result: 0.969

Request: May I ask what GFP signal change (wild-type ribosome) has been recorded for `COc1cccc(Cn2cc(/C=N/NC(=O)c3cc(O)cc(O)c3)c3ccccc32)c1` ?
Result: -27.3

Request: Please give the measured GFP signal change (wild-type ribosome) for this compound: `CCn1c(SCC(=O)Nc2nccs2)nnc1-c1ccco1`
Result: 10.8

Request: Consider the compound CC(NC(=O)Nc1ccc2c(c1)OCO2)c1ccncc1 (stereo not given) and give its measured GFP signal change (wild-type ribosome).
Result: 13.1

Request: Given `Cc1cccc(NC(=O)CCn2c(=O)oc3ccccc32)c1` , state its recorded GFP signal change (wild-type ribosome).
Result: 3.5

Request: Give its GFP signal change (wild-type ribosome) value. Item: `COc1ccc2c3c(n(C)c2c1)[C@@H](CO)N(C(=O)C1CC1)CC31CN(C(=O)C2CCOCC2)C1`
Result: -0.396
